Field: self-cleavage kobs at 640 uM GlcN6P. Provide a value for each of the variants that follow.
B1: glmS ribozyme (parent)
chain: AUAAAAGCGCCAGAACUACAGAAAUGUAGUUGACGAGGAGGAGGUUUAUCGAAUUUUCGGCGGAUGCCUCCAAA

variants of: B1; experiment: self-cleavage kobs at 640 uM GlcN6P; higher = faster cleavage; RNA array; conditions: with glucosamine-6-phosphate
Fewer inactive variants are shown than the library holds.

Give measured self-cleavage kobs at 640 uM GlcN6P for every item shown.
1. C67A C70A
2. C16U U31C G35A G41A G62U

1. 4.23e-05 s⁻¹
2. < 1e-05 s⁻¹

These entries and their values trace back to the supplement of paper PMC7125110.
